system: COLO 205; experiment: NCI tumour cell line growth inhibition, 48 h
Calls of active or inactive are those of the source. No stated cut-off is given here; in the data, active = GI50 up to about 1.1 µM and inactive = higher.
property: GI50

1) Cc1ccc(/C=C/C(=O)C(C)C)cc1 : > 100 µM (inactive)
2) Cc1cccc(C(C)(C)C)c1NC(=O)CCl : > 100 µM (inactive)
3) O=C(N/N=C/C=C/c1ccc([N+](=O)[O-])o1)c1ccc(C(=O)N/N=C/C=C/c2ccc([N+](=O)[O-])o2)cc1 : 36 µM (inactive)
4) S=C1NCCN1 : > 100 µM (inactive)
5) O=C(O)C/C=C/CC(=O)O : > 100 µM (inactive)
6) Cc1ccc(S(=O)(=O)N/N=C2/CCC3(O)CC2(C)CCC2[C@H]3CC2(C)C)cc1 (stereo partly specified) : 16.3 µM (inactive)
7) Cc1ccc(C(=O)Nc2ccc(CP(=O)(O)O)cc2CP(=O)(O)O)cc1NC(=O)Nc1cc(C(=O)Nc2ccc(CP(=O)(O)O)cc2CP(=O)(O)O)ccc1C : > 100 µM (inactive)
8) CCOC(=O)/C(C#N)=C(O)/C(=C/c1ccccc1Cl)NC(=O)c1ccccc1 : > 100 µM (inactive)
9) O=C(Nc1ccc(Cl)cc1Cl)C1C(=O)OC2(CCCCC2)OC1=O : 10.4 µM (inactive)
10) CC(=O)c1ccccc1NCC(=O)Nn1cnc2ccc(S(=O)(=O)Nc3ccccc3C(C)=O)cc2c1=O : > 100 µM (inactive)
11) CC(=O)O[C@@H]1[C@H](OC2CCCCC2(c2ccccc2)c2ccccc2)O[N+]([O-])=CC12CCCCC2 (stereo partly specified) : 16.4 µM (inactive)
12) CCN(CC)CCN1C=CC(C)C(C(=O)O)C1C(N)=O (stereo unspecified) : > 100 µM (inactive)
13) CC(=O)OC1CC2CCC1(C)C2(C)C (stereo unspecified) : > 100 µM (inactive)
14) CCOP(=O)(OCC)C(C)(CC)NC (stereo unspecified) : > 100 µM (inactive)
15) C=C1CC(Cn2ccc(=O)[nH]c2=O)(c2ccc(-c3ccccc3)cc2)OC1=O (stereo unspecified) : 0.441 µM (active)
16) O=C(c1ccco1)N(C(=S)OC12CC3CC(CC(C3)C1)C2)c1ccccc1 : 16.4 µM (inactive)
17) CC(=O)OCC1OC(n2c3c(cc(C#N)c2=S)CCC3)C(OC(C)=O)C(OC(C)=O)C1OC(C)=O (stereo unspecified) : > 100 µM (inactive)
18) CNC1=Nc2ccccc2C(=S)N2CSC[C@@H]12 : > 100 µM (inactive)
19) CCOC(=O)c1cc(C(=O)O)c(=O)n2c1[nH]c1ccccc12 : > 100 µM (inactive)
20) CCCCCCCCCCCCCCCCc1c(O)nc(NN)nc1C(=O)OC : > 50 µM (inactive)
21) COc1c(Cl)ccc(Cl)c1-c1nnc(-c2c(Cl)c(Cl)c(Cl)c(Cl)c2-c2nc3cc(C(=O)c4ccccc4)ccc3[nH]2)o1 : 21.9 µM (inactive)

----------
system: NCI-H23; experiment: NCI tumour cell line growth inhibition, 48 h
Active and inactive are the calls of the source. No stated cut-off is given here; in the data, active = GI50 up to about 1.1 µM and inactive = higher.
Catalogue of GI50 readings, one per entry.
property: GI50

1. N/C(=N\O)N/N=C/c1cccc(F)c1 : 39 µM (inactive)
2. S=C(Nc1ccc2c(c1)oc1ccccc12)c1cccnc1 : 24.5 µM (inactive)
3. C[C@H]1[C@@H](c2ccccc2)O[B-](c2ccccc2)(c2ccccc2)[N+]1(C)C : 70.1 µM (inactive)
4. Cn1c(=O)c2c(nc3n2CC(C(=O)O)N3)n(C)c1=O (configuration not stated) : > 100 µM (inactive)
5. CC(C)=CCC[C@@H](C)C1=C(O)C(=O)C(C)=C(N)C1=O : 27.3 µM (inactive)
6. CC(C)c1cccc(=O)c(O)c1 : 2.53 µM (inactive)
7. COc1ccc(N2C(=O)C3c4[nH]c5ccc(F)cc5c4C4CCC(C(C)(C)C)CC4C3C2=O)cc1 (configuration not stated) : > 10 µM (inactive)
8. C/C(CC(=O)Nc1ccc(C)cc1)=N\NC(N)=S : > 100 µM (inactive)
9. O=[N+]([O-])c1ccc(S[C@@H]2[C@H]3c4c(-c5ccccc5)[nH]c(-c5ccccc5)c4[C@@H]2C[C@H]3Cl)cc1 : 2.38 µM (inactive)
10. CC(C)C(Br)CC/C(CBr)=C(\Cl)CCl (configuration not stated) : 3.19 µM (inactive)
11. CC(=O)N[C@H]1CCCC[C@@H]1OC(C)=O : > 100 µM (inactive)
12. Cc1sccc1C(=S)Nc1ccc(Cl)c(/C=N/OC(C)(C)C)c1 : 15.4 µM (inactive)
13. COc1cc(C2OC[C@@H]3C(=O)OC[C@H]23)cc(O)c1OC (some centres not stated) : > 100 µM (inactive)
14. Cc1ccc(/C=C/C(=O)c2ccc(Cl)c(Cl)c2)cc1 : > 100 µM (inactive)
15. CO/N=C(/C)c1cccc(Nc2nc3ccccc3c3[nH]c4ccccc4c23)c1 : 10.3 µM (inactive)
16. CC(=O)OC1CC2CCC1(C)C2(C)C (configuration not stated) : > 100 µM (inactive)
17. CCCCCCCCOC(=O)c1cc([N+](=O)[O-])c(Sc2[nH]cnc3ncnc2-3)c([N+](=O)[O-])c1 : 2.45 µM (inactive)
18. O=C1Nc2ccccc2/C1=C1/Nc2ccccc2/C1=N\OCCOC1OCC(O)C(O)C1O (configuration not stated) : > 100 µM (inactive)
19. Cn1c2ccc(F)cc2c2ccc3c(c21)C(=O)C=CC3=O : 13.8 µM (inactive)
20. Cc1ccc(S(=O)(=O)OC(c2ccc(Cl)cc2Cl)C2OC(=O)c3ccccc32)cc1 (configuration not stated) : > 100 µM (inactive)
21. COC(=O)CC1NC(=O)C1C1(C)OCCO1 (configuration not stated) : > 100 µM (inactive)
22. COc1c(-c2nc3ccc(N4CCN(C)CC4)cc3[nH]2)cc(OC)c2[nH]c(COC(C)=O)nc12 : 65.9 µM (inactive)
